Every entry's value here was drawn from the Human Domainome abundance scans (Beltran et al. 2025).

B1: Receptor-interacting serine/threonine-protein kinase 2, residues 438 to 518; numbered along this chain, O43353 (parent)
chain: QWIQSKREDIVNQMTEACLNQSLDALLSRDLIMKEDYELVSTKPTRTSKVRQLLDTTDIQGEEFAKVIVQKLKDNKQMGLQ

- Variants of: B1
- assay.name: abundance fitness (aPCA) (normalised: wild type 0, dead -1); higher = more abundant; growth selection in yeast, the domain comes from the species named
- test.settings: Homo sapiens
Please note: label 1 applies when abundance fitness is -0.6 or greater, and label 0 applies otherwise.

Please review the entries below; each comes with its answer.
>  <sequence>
QWIQSKREDIVNQMTEACLNTSLDALLSRDLIMKEDYELVSTKPTRTSKVRQLLDTTDIQGEEFAKVIVQKLKDNKQMGLQ [Q21T]

>  <group>
label 1

$$$$
>  <sequence>
QWIQSKREDIVNQMTEACLNQSLFALLSRDLIMKEDYELVSTKPTRTSKVRQLLDTTDIQGEEFAKVIVQKLKDNKQMGLQ [D24F]

>  <group>
label 0

$$$$
>  <sequence>
QWIQSKREDIVNQMTEACLNQSLDALLSRDLIMKEDYELVSTKPTRTSKVRQLLDTTDIQGEEFAKVIVQKLKFNKQMGLQ [D74F]

>  <group>
label 1

$$$$
>  <sequence>
QWIQSKREDIVNQMTEACLNQSLDALLSRDLIMKEDYELVSTKPTRTSKVRQNLDTTDIQGEEFAKVIVQKLKDNKQMGLQ [L53N]

>  <group>
label 0

$$$$
>  <sequence>
QWIQSKREDIVNQMTEACLNQSLDALLSRDLIQKEDYELVSTKPTRTSKVRQLLDTTDIQGEEFAKVIVQKLKDNKQMGLQ [M33Q]

>  <group>
label 1

$$$$

Request: Is it the case that QWIQSKREDIVNQMTEACLNQSLDALLSRDLIMKEDYELVSTKPTRTSKVRQLLDTTDIQGEEFAKVIVQQLKDNKQMGLQ [K71Q] has abundance fitness reaching or exceeding -0.6?
Response: label 1

Request: Is it the case that QWIQSKREDIVNQMTEACLNQSLDALLSRDLIMKEDYELVSTKPTRTTKVRQLLDTTDIQGEEFAKVIVQKLKDNKQMGLQ [S48T] has abundance fitness reaching or exceeding -0.6?
Response: label 1

Request: Is it the case that QWIQSKREDIVNQMTEACLNQSLDALLSRDLIMKEDYELVSTKPTRTSKVRQLLDTTDIQGEEFAKVIVQKLVDNKQMGLQ [K73V] has abundance fitness reaching or exceeding -0.6?
Response: label 1

Request: Is it the case that QWIQSKREDIVNQMTEACLNQSLDALLSRDLIMKEDYELVSTKPTRTSKVRQLLDTTDIQGEEFAKQIVQKLKDNKQMGLQ [V67Q] has abundance fitness reaching or exceeding -0.6?
Response: label 1

Request: Is it the case that QWIQSKREDIVNQMTEACLNQSLDAWLSRDLIMKEDYELVSTKPTRTSKVRQLLDTTDIQGEEFAKVIVQKLKDNKQMGLQ [L26W] has abundance fitness reaching or exceeding -0.6?
Response: label 0
